Hi, quick share: literature pIC50 data for Poly [ADP-ribose] polymerase 2 (Homo sapiens, UniProt Q9UGN5), several sources combined.
# log scale: pIC50 equals minus log10 of the concentration in mol/L

What measured pIC50 is associated with NC(=O)c1cccc2[nH]c(NC(=O)c3cccc(C(=O)N4CCC(Nc5ncc(F)cn5)CC4)c3)nc12 on Poly [ADP-ribose] polymerase 2 (Homo sapiens, UniProt Q9UGN5)?
7.19

# repeat for NC(=O)c1cccc2[nH]c(NC(=O)c3cccc(C(=O)N4CCC(Nc5ncc(Br)cn5)CC4)c3)nc12
7.49

Now consider NC(=O)c1ccc(OCC2CCC2)cc1 .
4.42

Now the same for NC(=O)c1cc(Cl)c2ccc(-c3ccc(CN4CCN(C5CC5)CC4)cc3)nn12
6.00

Please do the same for O=C(CCCc1nc2ccccc2c(=O)[nH]1)N1CCN(c2noc3ccccc23)CC1 as well.
6.48

Next molecule: O=c1[nH]c(N2CCN(Cc3ccncc3)CC2)nc2c1CCCC2
5.38

Same again, this time with NC(=O)c1cc(Cl)c2ccc(-c3ccc(F)c(C(=O)N4CCN(C(=O)C5CC5)CC4)c3)nn12
5.72

Same for Cc1cccc2c(=O)[nH]c(CCCN3CCC(c4ccc(F)cc4)CC3)nc12
6.78

---

The molecules below each have a reported IC50 tested on UniProt Q9UGN5; the values come from various publications.
Note: unit nM is implicit; provide only the numeric part.

Report IC50 for N#Cc1ccc(-c2cnc3cccc(C(N)=O)c3n2)cc1 please.
8

Param item: NC(=O)c1cc(Cl)c2ccc(-c3ccc(C(=O)N4CCN(C(=O)C5CC5)CC4)cc3F)nn12
2320

Also check CCN(CC)Cc1ccc(-c2ccc3c(Cl)cc(C(N)=O)n3n2)cc1
2200

Also O=C1CC2(CCN(C(=O)CN3CCN(CCSc4nc5ccccc5c(=O)[nH]4)CC3)CC2)Oc2ccccc21 ?
347

What do you get for COC1CCN(C(=O)c2ccc(-c3ccc4c(Cl)cc(C(N)=O)n4n3)cc2)CC1 ?
4510

How about this molecule: O=c1[nH]c(CCCN2CCC(c3ccc(F)cc3)CC2)nc2c(Cl)cccc12
500

Would you kindly repeat that for NC1CCN(Cc2ccc(-c3[nH]c4cc(F)cc5c4c3CCNC5=O)cc2)CC1 ?
4.21

---

Collected pIC50 for Poly [ADP-ribose] polymerase 2 (Homo sapiens, UniProt Q9UGN5) across several studies; compounds listed below.
# pIC50 is unitless: minus log10 of the molar concentration; print number only

Param item = O=c1[nH]c(CCCN2CCC(c3ccccc3)CC2)nc2cccc(Cl)c12 ; retrieve measured pIC50.
6.20

How about this compound: NC(=O)c1ccccc1OCc1cccc(NC(=O)c2ccc(Br)cc2)c1
8.63

Okay, and Cc1c(CN2CCN(C(=O)c3cc(Cc4n[nH]c(=O)c5ccccc45)ccc3F)CC2)sc2c(N3CCOCC3)nc(-c3cnc(N)nc3)nc12 ?
9.05

Lookup O=c1[nH]c(SCCN2CCN(CCSc3nc4ccccc4c(=O)[nH]3)CC2)nc2ccccc12
7.42

Another compound to look at: NC(=O)c1cc(Cl)c2ccc(-c3ccc(CN4CCCC4)cc3)nn12
5.95

---

A compilation of published pIC50 results with Poly [ADP-ribose] polymerase 2 (Homo sapiens, UniProt Q9UGN5).
Sequence (Q9UGN5 whole entry): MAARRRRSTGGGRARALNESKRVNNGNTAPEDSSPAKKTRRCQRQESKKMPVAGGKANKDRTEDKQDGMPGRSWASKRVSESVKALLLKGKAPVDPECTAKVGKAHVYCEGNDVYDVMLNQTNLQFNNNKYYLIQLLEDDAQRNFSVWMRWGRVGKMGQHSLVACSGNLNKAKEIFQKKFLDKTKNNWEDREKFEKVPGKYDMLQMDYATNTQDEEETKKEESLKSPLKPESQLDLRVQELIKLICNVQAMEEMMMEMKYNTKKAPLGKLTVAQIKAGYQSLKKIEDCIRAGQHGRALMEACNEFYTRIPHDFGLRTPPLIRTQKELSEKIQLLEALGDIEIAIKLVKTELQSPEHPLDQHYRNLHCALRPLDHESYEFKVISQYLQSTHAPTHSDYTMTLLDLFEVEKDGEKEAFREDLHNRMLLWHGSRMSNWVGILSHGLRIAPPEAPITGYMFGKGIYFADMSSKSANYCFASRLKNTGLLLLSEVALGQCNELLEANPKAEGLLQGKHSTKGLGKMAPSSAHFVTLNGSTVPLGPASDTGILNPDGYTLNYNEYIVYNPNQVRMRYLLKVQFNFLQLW
The read-out pIC50 is expressed as -log10 of concentration in moles per litre.

Return reported pIC50; argument: NC(=O)c1cc(Cl)c2ccc(-c3cc4c(s3)CCNC4)nn12
6.68

Same again, this time with O=C(CCc1cccc(Cl)c1Cl)Nc1nnc2n1CCS2
5.42

Could you do the same for O=C(CCSc1nc2ccccc2c(=O)[nH]1)N[C@H]1CC[C@H](c2nnc(-c3ccncc3)o2)CC1 , please?
5.52

What about CC(=O)N1CCN(Cc2ccc(-c3[nH]c4cc(F)cc5c4c3CCNC5=O)cc2)CC1 ?
8.19

Thanks! And O=c1[nH]c(SCCN2CCN(CCCOc3ccc(-c4ccccc4)cc3)CC2)nc2ccccc12 ?
6.47
